assay: Metabolic stability in human liver microsomes; assay type: in vitro ADME; conditions: pH 7.4, EXP# 2506, apparent intrinsic clearance, human liver microsomes, 0.25 μM test compound
Would you mind telling me the reported CLint scaled at 0.25 μM of each entry?
Number first, unit second: that is the form wanted.

Qu. Requested read-out: CLint scaled at 0.25 μM. Entry: [2H]C([2H])([2H])Oc1cccc([C@H](O)C2CCN(C([2H])([2H])Cc3ccc(F)cc3)CC2)c1OC([2H])([2H])[2H] [Compound 151]
Ans. 2.3 mL/min/kg

Qu. Next entry: [2H]C([2H])([2H])Oc1cccc([C@H](O)C2CCN(CCc3ccc(F)cc3)CC2)c1OC [Compound 115]
Ans. 2.3 mL/min/kg

Qu. Next entry: [2H]C([2H])([2H])Oc1cccc([C@H](O)C2CCN(CCc3ccc(F)cc3)CC2)c1OC([2H])([2H])[2H] [Compound 147]
Ans. 2.3 mL/min/kg

Qu. Next entry: COc1cccc([C@H](O)C2CCN(CCc3ccc(F)cc3)CC2)c1OC [volinanserin, reference compound]
Ans. 3.2 mL/min/kg

====

test: Metabolic stability in human liver microsomes; assay type: in vitro ADME; conditions: pH 7.4, EXP# 2506, 4.0 mg/mL human liver microsomes, 0.25 μM test compound, 2 mM NADPH, 37° C.
Readout kind: half-life at 0.25 μM
Number first, unit second: that is the form wanted.

Qu. Requested read-out: half-life at 0.25 μM. Entry: [2H]C([2H])([2H])Oc1cccc([C@H](O)C2CCN(C([2H])([2H])C([2H])([2H])c3ccc(F)cc3)CC2)c1OC([2H])([2H])[2H] [Compound 159]
Ans. 1.42 h

Qu. Next entry: COc1cccc([C@H](O)C2CCN(CCc3ccc(F)cc3)CC2)c1OC [volinanserin, reference compound]
Ans. 0.808 h

Qu. Next entry: [2H]C([2H])([2H])Oc1cccc([C@H](O)C2CCN(CCc3ccc(F)cc3)CC2)c1OC [Compound 115]
Ans. 1.16 h

Qu. Next entry: [2H]C([2H])([2H])Oc1cccc([C@H](O)C2CCN(C([2H])([2H])Cc3ccc(F)cc3)CC2)c1OC([2H])([2H])[2H] [Compound 151]
Ans. 1.17 h

Qu. Next entry: [2H]C([2H])([2H])Oc1cccc([C@]([2H])(O)C2CCN(CCc3ccc(F)cc3)CC2)c1OC([2H])([2H])[2H] [Compound 148]
Ans. 1.19 h

Qu. Next entry: [2H]C([2H])([2H])Oc1cccc([C@H](O)C2CCN(CCc3ccc(F)cc3)CC2)c1OC([2H])([2H])[2H] [Compound 147]
Ans. 1.12 h

Qu. Next entry: [2H]C([2H])([2H])Oc1c(OC)cccc1[C@H](O)C1CCN(CCc2ccc(F)cc2)CC1 [Compound 131]
Ans. 1.19 h

====

assay: Metabolic stability in human liver microsomes; type: in vitro ADME; details: pH 7.4, EXP#2503, apparent intrinsic clearance, human liver microsomes, 0.25 μM test compound
Would you mind telling me the reported CLint scaled at 0.25 μM of each entry?
Give the number; mL/min/kg is assumed, so skip it.

Qu. Requested read-out: CLint scaled at 0.25 μM. Entry: [2H]C1([2H])N(CCc2ccc(F)cc2)C([2H])([2H])C([2H])([2H])C([2H])([C@@H](O)c2cccc(OC)c2OC)C1([2H])[2H] [Compound 203]
Ans. 3.4

Qu. Next entry: [2H]C([2H])(Cc1ccc(F)cc1)N1C([2H])([2H])C([2H])([2H])C([2H])([C@@H](O)c2cccc(OC)c2OC)C([2H])([2H])C1([2H])[2H] [Compound 215]
Ans. 3.4

Qu. Next entry: [2H]C([2H])([2H])Oc1cccc([C@H](O)C2([2H])C([2H])([2H])C([2H])([2H])N(CCc3ccc(F)cc3)C([2H])([2H])C2([2H])[2H])c1OC([2H])([2H])[2H] [Compound 347]
Ans. 3.2

Qu. Next entry: COc1cccc([C@H](O)C2CCN(CCc3ccc(F)cc3)CC2)c1OC [volinanserin, reference compound]
Ans. 3.5

Qu. Next entry: [2H]C([2H])([2H])Oc1cccc([C@H](O)C2([2H])C([2H])([2H])C([2H])([2H])N(C([2H])([2H])Cc3ccc(F)cc3)C([2H])([2H])C2([2H])[2H])c1OC([2H])([2H])[2H] [Compound 359]
Ans. 2.4

Qu. Next entry: [2H]C([2H])([2H])Oc1cccc([C@H](O)C2([2H])C([2H])([2H])C([2H])([2H])N(C([2H])([2H])C([2H])([2H])c3ccc(F)cc3)C([2H])([2H])C2([2H])[2H])c1OC([2H])([2H])[2H] [Compound 383]
Ans. 2.3

====

assay: Metabolic stability in human liver microsomes; format: in vitro ADME; settings: pH 7.4, EXP# 2503, 4.0 mg/mL human liver microsomes, 0.25 μM test compound, 2 mM NADPH, 37° C.
Would you mind telling me the reported half-life at 0.25 μM of each entry?
Number first, unit second: that is the form wanted.

Qu. Requested read-out: half-life at 0.25 μM. Entry: [2H]C([2H])([2H])Oc1cccc([C@H](O)C2([2H])C([2H])([2H])C([2H])([2H])N(C([2H])([2H])C([2H])([2H])c3ccc(F)cc3)C([2H])([2H])C2([2H])[2H])c1OC([2H])([2H])[2H] [Compound 383]
Ans. 74 min

Qu. Next entry: [2H]C([2H])([2H])Oc1cccc([C@H](O)C2([2H])C([2H])([2H])C([2H])([2H])N(C([2H])([2H])Cc3ccc(F)cc3)C([2H])([2H])C2([2H])[2H])c1OC([2H])([2H])[2H] [Compound 359]
Ans. 65.8 min

Qu. Next entry: COc1cccc([C@H](O)C2CCN(CCc3ccc(F)cc3)CC2)c1OC [volinanserin, reference compound]
Ans. 44.7 min

Qu. Next entry: [2H]C([2H])(Cc1ccc(F)cc1)N1C([2H])([2H])C([2H])([2H])C([2H])([C@@H](O)c2cccc(OC)c2OC)C([2H])([2H])C1([2H])[2H] [Compound 215]
Ans. 46.6 min

Qu. Next entry: [2H]C1([2H])N(CCc2ccc(F)cc2)C([2H])([2H])C([2H])([2H])C([2H])([C@@H](O)c2cccc(OC)c2OC)C1([2H])[2H] [Compound 203]
Ans. 47.6 min

Qu. Next entry: [2H]C([2H])([2H])Oc1cccc([C@H](O)C2([2H])C([2H])([2H])C([2H])([2H])N(CCc3ccc(F)cc3)C([2H])([2H])C2([2H])[2H])c1OC([2H])([2H])[2H] [Compound 347]
Ans. 48.9 min

====

experiment: Metabolic stability in human liver microsomes; assay type: in vitro ADME; conditions: pH 7.4, EXP# 2506, apparent intrinsic clearance, human liver microsomes, 0.25 μM test compound
Would you mind telling me the reported CLint scaled at 0.25 μM of each entry?
Give the number; mL/min/kg is assumed, so skip it.

Qu. Requested read-out: CLint scaled at 0.25 μM. Entry: `[2H]C([2H])([2H])Oc1c(OC)cccc1[C@H](O)C1CCN(CCc2ccc(F)cc2)CC1`
Ans. 2.4

Qu. Next entry: `[2H]C([2H])([2H])Oc1cccc([C@]([2H])(O)C2CCN(CCc3ccc(F)cc3)CC2)c1OC([2H])([2H])[2H]`
Ans. 2.2

Qu. Next entry: `[2H]C([2H])([2H])Oc1cccc([C@H](O)C2CCN(C([2H])([2H])C([2H])([2H])c3ccc(F)cc3)CC2)c1OC([2H])([2H])[2H]`
Ans. 1.9
